# Test system: human serotonin transporter (hSERT) (Homo sapiens)
# Construct: expressed in transfected cells; host or cells: HEK-293, stably transfected; membranes
# Sequence (P31645 whole entry): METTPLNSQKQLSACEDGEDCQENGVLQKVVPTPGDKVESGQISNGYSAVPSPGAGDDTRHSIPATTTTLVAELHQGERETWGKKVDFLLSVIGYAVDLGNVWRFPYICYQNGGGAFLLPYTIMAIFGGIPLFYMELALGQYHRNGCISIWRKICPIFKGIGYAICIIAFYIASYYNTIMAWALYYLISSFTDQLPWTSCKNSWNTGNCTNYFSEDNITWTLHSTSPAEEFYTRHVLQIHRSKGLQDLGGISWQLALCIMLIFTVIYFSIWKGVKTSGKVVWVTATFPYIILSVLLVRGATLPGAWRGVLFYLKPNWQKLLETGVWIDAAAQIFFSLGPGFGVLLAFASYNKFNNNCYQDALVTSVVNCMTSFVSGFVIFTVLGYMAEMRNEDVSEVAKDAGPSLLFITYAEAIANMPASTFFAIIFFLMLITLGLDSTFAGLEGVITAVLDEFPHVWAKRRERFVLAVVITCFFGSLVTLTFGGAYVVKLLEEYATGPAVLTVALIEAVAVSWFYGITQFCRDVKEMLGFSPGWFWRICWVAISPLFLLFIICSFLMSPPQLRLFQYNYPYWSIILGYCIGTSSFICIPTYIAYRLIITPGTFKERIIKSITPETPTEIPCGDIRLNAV
# Measurement description: Human transporter radioligand binding, hSERT ([3H]citalopram, HEK-293 membranes)
# Condition context: HCl salts of test compounds; n ≥ 3, values marked b n = 1; read-out: Equilibrium Dissociation Constant (KD) for Transporter Binding (Geometric Mean; nM ± SEM) hSERT (S)
Metric: Kd (nM)
Report only the number, with the unit nM understood.

Look up Kd of "CNC[C@H](c1ccccc1)[C@@H](O)c1ccc(F)cc1" and report it. 11900

Specify measured Kd for "CNC[C@H](c1ccccc1)[C@H](O)c1ccc(F)cc1" . 1260

Supply measured Kd of CNCC(c1ccccc1)C(O)c1ccc(Br)cc1 (centres unmarked) [MCJ001-Br—Ph—OH-RS/SR] in your reply. 3320

Give reported Kd value for CNCC(c1ccccc1)C(O)c1ccc(Br)cc1 (centres unmarked) [MCJ001-Br—Ph—OH-SS/RR] 7300

Output Kd of "CNC[C@H](c1ccc2ccccc2c1)[C@H](O)c1ccccc1" 3.8

Note down Kd recorded for "CNC[C@H](c1ccc2ccccc2c1)[C@@H](O)c1ccc(F)cc1" 27

Fill in Kd for record "CNC[C@H](c1ccc2ccccc2c1)[C@H](O)c1ccc(F)cc1" 33

Note Kd for the compound shown: "CNC[C@@H](c1ccccc1)[C@@H](O)c1ccc2ccccc2c1" 16

// data source = patent US20120220665A1
